system: Rattus norvegicus; conditions: acute; oral; Sprague-Dawley
Recorded LD50 for the following compounds
Write the number in mg/kg without appending the unit.

smiles_record: CC(C)(c1ccccc1)c1ccc(O)cc1
target: Rattus norvegicus
reported_metric: LD50
reading: 1770
--
smiles_record: O=C(O)CCCC(=O)O
target: Rattus norvegicus
reported_metric: LD50
reading: 2750

IN: # get_value(readout='LD50', item= O=C(O)CCCCC(=O)O )
OUT: 5050

----------
Recorded LD50 for the following molecules
test system: Rattus norvegicus; settings: acute; oral; gavage; Sprague-Dawley

Some solved entries appear below for comparison.
molecule: CCN(CC)c1ccc2c(c1)Oc1cc(C)c(Nc3ccc(C)cc3C)cc1C21OC(=O)c2ccccc21 (stereo not given)
LD50: > 10000 mg/kg
//
molecule: ClC1=C(Cl)C2(Cl)C3CCC4C(CCC3C1(Cl)C2(Cl)Cl)C1(Cl)C(Cl)=C(Cl)C4(Cl)C1(Cl)Cl (stereo not given)
LD50: > 3160 mg/kg
//
molecule: CC(C)(N=C=O)c1cccc(C(C)(C)N=C=O)c1
LD50: > 5000 mg/kg

IN: # get_value(readout='LD50', item= O=c1[nH]c(=O)[nH]c(=O)[nH]1 )
OUT: > 5000 mg/kg

IN: # get_value(readout='LD50', item= CCCCCCCCCCCCCCCCCCN(C)CCCCCCCCCCCCCCCCCC )
OUT: > 5000 mg/kg
